target: Human CypA (Homo sapiens, UniProt P62937)
Sequence (P62937 whole entry): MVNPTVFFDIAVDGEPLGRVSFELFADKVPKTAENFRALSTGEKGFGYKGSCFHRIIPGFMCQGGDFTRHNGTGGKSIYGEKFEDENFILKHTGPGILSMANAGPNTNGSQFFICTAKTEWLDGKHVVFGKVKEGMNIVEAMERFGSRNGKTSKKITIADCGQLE
Quantity Kind: Kd

Sure, the documented Kd for C[C@]12CC(=O)[C@H](O)[C@](C)(CO)[C@@H]1CC[C@@]1(C)c3cocc3CC[C@H]21 [Compound 4, epispongiadiol] is 27.4 µM

* * *

target: Human CypA (Homo sapiens, UniProt P62937); assay: Surface plasmon resonance binding to immobilized CypA; conditions: read-out: ka, CypA
Quantity Kind: kon (M⁻¹ s⁻¹)
# output: bare number, implied unit M⁻¹ s⁻¹

Sure, the documented kon for CC1(C)[C@@H](O)C(=O)C[C@]2(C)[C@H]3CCc4cocc4[C@]3(C)CC[C@@H]12 is 682

* * *

// human CypD (Homo sapiens, UniProt P30405) pKd records
Kindly note that pKd refers to -log10 of the concentration in mol/L and answer with the value alone.

Example entries begin here.
1) CC1=C(O)C(=O)C[C@]2(C)[C@H]3CCc4cocc4[C@]3(C)CC[C@@H]12    5.15
2) C[C@]12CC(=O)[C@H](O)[C@](C)(CO)[C@@H]1CC[C@@]1(C)c3cocc3CC[C@H]21 [Compound 4, epispongiadiol]    4.52

Continue with the compound presented below.
Considering C[C@]12C=C(O)C(=O)[C@](C)(CO)[C@@H]1CC[C@@]1(C)c3cocc3CC[C@H]21 , its pKd with human CypD (Homo sapiens, UniProt P30405) was recorded as 5.53

* * *

Reported kon values follow for various compounds
biological target: Human CypA (Homo sapiens, UniProt P62937); assay: Surface plasmon resonance binding to immobilized CypA; conditions: read-out: ka, CypA
# output: bare number, implied unit M⁻¹ s⁻¹

Example entries begin here.
1. CC1=C(O)C(=O)C[C@]2(C)[C@H]3CCc4cocc4[C@]3(C)CC[C@@H]12 [Compound 3]    3190
2. C[C@]12CC(=O)[C@H](O)[C@](C)(CO)[C@@H]1CC[C@@]1(C)c3cocc3CC[C@H]21 [Compound 4, epispongiadiol]    861

Sure, the documented kon for CC1(C)C(=O)C(O)=C[C@]2(C)[C@H]3CCc4cocc4[C@]3(C)CC[C@@H]12 [Compound 2] is 1320

Sure, the documented kon for C[C@]12C=C(O)C(=O)[C@](C)(CO)[C@@H]1CC[C@@]1(C)c3cocc3CC[C@H]21 [Compound 5, spongian diterpene 17] is 3590
